Give log10 IC50 for every item shown.
Target: human SOS1 (nucleotide exchange of K-Ras^G12C) (Homo sapiens, UniProt Q07889)
Assay: Biochemical assay 2: K-Ras^G12C activation assay by hSOS1 at high GTP concentration (HTRF)
Settings: high GTP; read-out: Assay 2 (KRAS-Activation by SOS high GTP) activity expressed as IC50
Each number you see is log10 of IC50, and the unit inside the log is µM.

CCOCc1ccccc1-c1ccc([C@H](C)Nc2nc(C)nc3cc(OC)c(OC)cc23)s1 (racemic) [Example 133] = 0.61
COc1cc2nc(C)nc(N[C@@H](C)c3ccc(-c4ccc(CNC(C)=O)cc4)s3)c2cc1OC (racemic) [Example 138] = 0.87
COc1cc2nc(C)nc(NC(C)c3cc(-c4ccc(F)cc4CN)cs3)c2cc1OC (centres unmarked) [Example 269] = -0.94
COc1cc2nc(C)nc(N[C@H](C)c3cccc(-c4ccc(CO)s4)c3)c2cc1OC [Example 107] = -0.33
COc1cc2nc(C)nc(N[C@H](C)c3cccc(-c4ccccc4OC(F)(F)F)c3)c2cc1OC [Example 83] = 0.89

Quick request: log10 IC50 for each listed item, please.
1. COc1cc2nc(C)nc(NC(C)c3ccc(-c4ccccc4CN(C)CC(F)F)s3)c2cc1OC (centres unmarked) [Example 291]
2. COc1cc2nc(C)nc(N[C@H](C)c3cccc(-c4cc(Cl)cc(Cl)c4)c3)c2cc1OC [Example 124]

0.12
0.97

log10 IC50 for COc1cc2nc(C)nc(N[C@@H](C)c3ccc(-c4ccoc4)s3)c2cc1OC (racemic) [Example 153] is 0.44

###

Target: human SOS1 (loading of human K-Ras^G12C-GDP with fluorescent GTP-analog) (Homo sapiens)
Assay: Biochemical assay 3: K-Ras^G12C activation assay by hSOS1 (HTRF)
Details: E-notation values; unit inferred; read-out: Assay 3 (KRAS-Activation) IC50
Give IC50 for every item shown.
Give bare numbers, in nM.

Answered examples (7):
CNC(=O)Nc1ccc2nc(C)nc(NC(C)c3ccc(-c4ccccc4CN(C)C)s3)c2c1 (centres unmarked) = 638
COc1cc2nc(C)nc(NC(C)c3ccc(-c4ccccc4CN(C)C)s3)c2cc1OC (single isomer, unassigned) [Example 390] = 12900
Cc1nc(NC(C)c2ccc(-c3ccccc3CN(C)C)s2)c2cc(N)ccc2n1 (centres unmarked) = 303
COc1cc2nc(C)nc(NC(C)c3ccc(-c4ccccc4CC(N)=O)s3)c2cc1OC (centres unmarked) = 2290
COc1cc2nc(C)nc(NC(C)c3ccc(-c4ccc(C#N)cc4CN(C)C)s3)c2cc1OC (centres unmarked) = 213
CCCCC(O)c1ccccc1-c1ccc(C(C)Nc2nc(C)nc3cc(OC)c(OC)cc23)s1 (centres unmarked) = 15100
COc1cc2nc(C)nc(NC(C)c3sc(-c4ccccc4CNC(=O)OC(C)(C)C)cc3Cl)c2cc1OC (centres unmarked) = 5040

Item Cc1nc(N[C@H](C)c2cccc(Cl)c2)c2cc(C3CC3)ccc2n1 was tested on human SOS1 (loading of human K-Ras^G12C-GDP with fluorescent GTP-analog) (Homo sapiens); the reported IC50 is 2140

###

Give pIC50 for every item shown.
Target: human SOS1 (nucleotide exchange of K-Ras^G12C) (Homo sapiens)
Test: Biochemical assay 2: K-Ras^G12C activation assay by hSOS1 at high GTP concentration (HTRF)
Details: high GTP; read-out: Assay 2 (KRAS-Activation by SOS high GTP) activity expressed as IC50
Answers are plain numbers, as −log10 of the molar value.

Answered examples (3):
COc1cc2nc(C)nc(N[C@H](C)c3cccc(-c4cncc(C)c4)c3)c2cc1OC [Example 41] = 5.85
CCOc1cc2c(N[C@H](C)c3cccc(-c4cn[nH]c4)c3)nc(C)nc2cc1OC [Example 355] = 6.24
COc1cc2nc(C)nc(NC(C)c3ccc(-c4ccccc4CN4CCCC(C(N)=O)C4)s3)c2cc1OC (centres unmarked) [Example 290] = 6.94

Quick request: pIC50 for each listed item, please.
1. C/C=C/c1ccc([C@H](C)Nc2nc(C)nc3cc(OC)c(OC)cc23)s1 (racemic) [Example 177]
2. COc1cc2nc(C)nc(N[C@@H](C)c3ccc(-c4ccc5cc[nH]c5c4)s3)c2cc1OC (racemic) [Example 54]
3. COc1cc2nc(C)nc(NC(C)c3cccc4cnn(C)c34)c2cc1OC (centres unmarked) [Example 10]
4. COc1cc2nc(C)nc(N[C@H](C)c3cccc(-c4cn[nH]c4)c3)c2cc1O [Example 345]
5. COc1cc2nc(C)nc(NC(C)c3cccc4[nH]nc(C)c34)c2cc1OC (centres unmarked) [Example 13]

1: 5.17; 2: 5.38; 3: 5.90; 4: 5.11; 5: 5.58

###

Target: human SOS1 (nucleotide exchange of K-Ras^G12C) (Homo sapiens)
Assay: Biochemical assay 2: K-Ras^G12C activation assay by hSOS1 at high GTP concentration (HTRF)
Conditions: read-out: Assay 2 (KRAS-Activation by SOS high GTP) activity expressed as % inhibition at 20 μM; high GTP; at 20 μM
Endpoint: inhibition at 20 µM (%)
Answers are plain numbers, in %.

Answered examples (2):
COc1cc(F)cc(-c2ccc([C@H](C)Nc3nc(C)nc4cc(OC)c(OC)cc34)s2)c1 (stereo in doubt) [Example 134] = 23
COc1cc2nc(C)nc(N[C@@H](C)c3ccc(-c4ccc5c(c4)OCO5)s3)c2cc1OC (stereo in doubt) [Example 163] = 42

inhibition at 20 µM for COc1cc2nc(C)nc(N[C@@H](C)c3ccc(-c4ccc(NC(=O)OC(C)(C)C)cc4)s3)c2cc1OC (stereo in doubt) [Example 159] is 27

###

Biological target: human SOS1 (nucleotide exchange of K-Ras^G12C) (Homo sapiens, UniProt Q07889)
Experiment: Biochemical assay 2: K-Ras^G12C activation assay by hSOS1 at high GTP concentration (HTRF)
Settings: high GTP; read-out: Assay 2 (KRAS-Activation by SOS high GTP) activity expressed as IC50
Please note: IC50 exactly at 1 µM is -1. Only values below 1 µM get 1.

CCOCc1ccccc1-c1cccc([C@@H](C)Nc2nc(C)nc3cc(OC)c(OC)cc23)c1 [Example 64] = -1

Determine whether this molecule shows IC50 lower than 1 µM (ties excluded): COc1cc2nc(C)nc(NC(C)c3ccc(-c4ccc(CNC(=O)OC(C)(C)C)o4)s3)c2cc1OC (centres unmarked) [Example 236]
-1

Determine whether this molecule shows IC50 lower than 1 µM (ties excluded): COc1cc2nc(C)nc(NC(C)c3ccc(-c4ccccc4CNCC(=O)N4CCOCC4)s3)c2cc1OC (centres unmarked) [Example 285]
1

Determine whether this molecule shows IC50 lower than 1 µM (ties excluded): COc1cc2nc(C)nc(N[C@H](C)c3cccc(-c4ccc5c(c4)CC(=O)N5)c3)c2cc1OC [Example 57]
1

Determine whether this molecule shows IC50 lower than 1 µM (ties excluded): COc1cc2nc(C)nc(NC(C)c3cccc4cccnc34)c2cc1OC (single isomer, unassigned; enantiomer 1) [Example 230]
-1

Determine whether this molecule shows IC50 lower than 1 µM (ties excluded): COc1cc2nc(C)nc(NC(C)c3ccc(-c4cccc(C(N)=O)c4)s3)c2cc1OC (centres unmarked) [Example 241]
-1

Determine whether this molecule shows IC50 lower than 1 µM (ties excluded): COc1cc2nc(C)nc(NC(C)c3nccc4sccc34)c2cc1OC (centres unmarked) [Example 333]
-1

###

Give pIC50 for every item shown.
Target: human SOS1 (loading of human K-Ras^G12C-GDP with fluorescent GTP-analog) (Homo sapiens, UniProt Q07889)
Experiment: Biochemical assay 3: K-Ras^G12C activation assay by hSOS1 (HTRF)
Conditions: no GTP; read-out: Assay 3 (KRAS-Activation by SOS no GTP) activity expressed as IC50
One number for each entry, as −log10 of the molar value.

Answered examples (3):
COc1cc2nc(C)nc(NC(C)c3csc(-c4ccccc4CN)c3)c2cc1OC (stereo not shown) = 6.19
COc1cc2nc(C)nc(NC(C)c3ccc(-c4cnn(C5CCCC5)c4)s3)c2cc1OC (stereo not shown) = 5.32
COc1cc2nc(C)nc(N[C@H](C)c3cccc(C4=CCCC4)c3)c2cc1OC = 5.51

Turning now to a further compound:
pIC50 for CCC/C=C/c1cccc([C@@H](C)Nc2nc(C)nc3cc(OC)c(OC)cc23)c1 is 5.37

###

Target: K-Ras^G12C : hSOS1 interaction (Homo sapiens, UniProt Q07889)
Assay: Biochemical assay 1: K-Ras^G12C interaction assay with hSOS1 (HTRF)
Type: binding
Details: read-out: Assay 1 (KRAS-SOS Interaction) activity expressed as % inhibition at 20 μM
Could you label it Satisfied if measured inhibition at 20 µM is 40% or higher, and Not satisfied otherwise?

COc1cc2nc(C)nc(N[C@@H](C)c3ccc(-c4cccc(-c5nnc(C)o5)c4)s3)c2cc1OC (stereo in doubt) = Satisfied

Say whether COc1cc2nc(C)nc(NC(C)c3ccc(-c4ccccc4CN4CCN(C(=O)OC(C)(C)C)CC4)s3)c2cc1OC (centres unmarked) shows inhibition at 20 µM of 40% or more.
Satisfied

Say whether COc1cc2nc(C)nc(NC(C)c3ccc(-c4ccc(CNC(=O)OC(C)(C)C)o4)s3)c2cc1OC (centres unmarked) shows inhibition at 20 µM of 40% or more.
Not satisfied

Say whether CCCOc1ccc(Cl)cc1-c1ccc([C@H](C)Nc2nc(C)nc3cc(OC)c(OC)cc23)s1 (stereo in doubt) shows inhibition at 20 µM of 40% or more.
Not satisfied

Say whether COc1cc2nc(C)nc(N[C@@H](C)c3ccc(-c4cccc(OCc5ccccc5)c4)s3)c2cc1OC (stereo in doubt) shows inhibition at 20 µM of 40% or more.
Not satisfied

Say whether COc1cc2nc(C)nc(N[C@@H](C)c3ccc(-c4ccc(C(C)(C)C#N)cc4)s3)c2cc1OC (stereo in doubt) shows inhibition at 20 µM of 40% or more.
Satisfied

Say whether COc1cc2nc(C)nc(NC(C)c3ccc(-c4ccc(F)cc4CNC(=O)c4cc5ccccc5[nH]4)s3)c2cc1OC (centres unmarked) shows inhibition at 20 µM of 40% or more.
Not satisfied

Say whether COc1cc2nc(C)nc(N[C@@H](C)c3ccc(-c4cc(Cl)cc(Cl)c4)s3)c2cc1OC (stereo in doubt) shows inhibition at 20 µM of 40% or more.
Satisfied

Say whether COc1cc2nc(C)nc(N[C@@H](C)c3ccc(-c4cccc(N5CCOCC5)c4)s3)c2cc1OC (stereo in doubt) shows inhibition at 20 µM of 40% or more.
Satisfied

Say whether COc1cc2nc(C)nc(NC(C)c3ccc(C4=CCCC4)s3)c2cc1OC (centres unmarked) shows inhibition at 20 µM of 40% or more.
Satisfied

Say whether COc1cc(F)cc(-c2ccc([C@H](C)Nc3nc(C)nc4cc(OC)c(OC)cc34)s2)c1 (stereo in doubt) shows inhibition at 20 µM of 40% or more.
Satisfied

Say whether COc1cc2nc(C)nc(N[C@@H](C)c3ccc(/C=C/C4CCCCC4)s3)c2cc1OC (racemic) shows inhibition at 20 µM of 40% or more.
Satisfied
